These data points were gathered from PubChem BioAssay (NCI).

System: HCT-15 colon
Experiment: NCI tumour cell line growth inhibition, 48 h
reported.metric: TGI

compound	reported.metric	experimental.result
CCn1c(O)c(C=N)c(=O)n(CC)c1=O	TGI	> 100 µM
COc1ccc(NC(C)=O)cc1C1CCC(=O)N1 (centres undefined)	TGI	> 100 µM
Cc1ccc(NC(=O)CC(=O)n2nc(-c3ccccc3)c(N=Nc3ccccc3Cl)c2-c2ccccc2)cc1	TGI	> 100 µM
CN(C)C(=O)Nc1cc2c3c(c1)CCCN3CCC2	TGI	> 10 µM
OC(C/C(=N\N1CCCCC1)c1cccs1)(C(F)(F)F)C(F)(F)F	TGI	> 10 µM
Nc1nc(=S)[nH]c(C(=O)Nc2ccc(Cl)c(Cl)c2)c1-c1ccc(Cl)cc1	TGI	> 100 µM
N#CC(Nc1ccccc1)c1ccc(C(C#N)Nc2ccccc2)cc1 (centres undefined)	TGI	> 100 µM
CCCCc1ccc(-n2c3nc(=O)n(C)c(=O)c-3nc3ccccc32)cc1	TGI	18.3 µM
Cc1cc(N2CCCC2)nc(NC2CCCC(Nc3ccnc4cc(Cl)ccc34)C2)n1 (centres undefined)	TGI	2.44 µM
COC(=O)C1[C@@H](C(=O)OC)C12C=Cc1ccccc1C=C2 (some centres undefined)	TGI	> 100 µM
COc1ccc(C2=C(N)c3c(OC)cccc3C2=O)cc1	TGI	> 100 µM
C=C(C)CN(CC#N)CC(=C)C	TGI	> 100 µM
O=C(Nc1ccc(F)cc1F)c1cc(Br)ccc1O	TGI	17.3 µM
NC1=NN(c2ccccc2)C2(O)c3ccncc3C3=NN(c4ccccc4)C(=O)C132 (centres undefined)	TGI	> 100 µM
CCN=c1cc2sc3cc(NCC)c(C)cc3nc-2cc1C	TGI	9.51 µM
CC(=O)OC1COC(n2c(-c3ccc(Cl)cc3)cc(-c3ccccc3)c(C#N)c2=S)C(OC(C)=O)C1OC(C)=O (centres undefined)	TGI	> 100 µM
COc1cccc2c(Nc3ccc(S(=O)(=O)NC(C)=O)cc3)c3ccc([N+](=O)[O-])cc3nc12	TGI	> 100 µM
CCc1nc(N)nc(C(=O)NCCNC(=O)c2nc(N)nc(CC)c2C)c1C	TGI	> 100 µM
COc1ccc2c(c1)N=C1CSC(c3cccc(Br)c3)N1C2 (centres undefined)	TGI	35.5 µM
c1ccc2c(c1)-c1ccccc1C2N1CC2CCC(CC2)C1	TGI	40 µM
Cc1cccc(C)c1NC(=S)NC=C(C(N)=O)C(N)=O	TGI	> 100 µM
O=C1CCC2CCC1C2 (centres undefined)	TGI	> 100 µM
COc1cc2c(cc1OCCCCCCN1CCN(c3ncnc4ccccc34)CC1)N=CC1CCCN1C2=O (centres undefined)	TGI	2.39 µM
CCCN1CN(C(C(=O)N[C@@H]2C(=O)N3C(C(=O)O)=C(C)CSC23)c2ccc(O)cc2)CSC1=S (some centres undefined)	TGI	> 100 µM
